Exercise: for every item that follows, state its recorded GI50.
# Tested on: SF-539
# Test protocol: NCI tumour cell line growth inhibition, 48 h
Active and inactive are the calls of the source. No stated cut-off is given here; in the data, active = GI50 up to about 1.1 µM and inactive = higher.

Field: example entries. Status: answers known.
>  <Compound>
COc1ccc(C(=O)c2ccc(-n3c4ccccc4c4ccc5c(c43)C(=O)C=CC5=O)cc2)cc1

>  <GI50>
2.61 µM (inactive)

$$$$
>  <Compound>
CNC(=O)CCCNC(=O)CCCC(=O)N(C)C

>  <GI50>
> 100 µM (inactive)

$$$$
>  <Compound>
O=C(/C=C/c1ccc(Oc2cc(C(=O)/C=C/c3ccc(O)cc3)c(O)cc2O)cc1)c1ccc(O)cc1O [RHUSCHALCONE II]

>  <GI50>
2.43 µM (inactive)

$$$$
>  <Compound>
COC(=O)CC(=O)OC1C[C@@H]2CCC3C(C)(C)CCC[C@]3(C)C23CC[C@@]1(C)C3 (stereo not given in full)

>  <GI50>
19.6 µM (inactive)

$$$$
>  <Compound>
COc1ccc(C2SC(=N)Nc3c2c(C)nn3C(=O)c2ccccc2O)cc1OC (stereo not given)

>  <GI50>
2.84 µM (inactive)

$$$$
>  <Compound>
CCOC(=O)C1=C(C#N)S(=O)(=O)c2c(oc(C)c2C)N1

>  <GI50>
> 100 µM (inactive)

$$$$
>  <Compound>
CCc1cc(C)cc2[n+]1CC=C2.[O-][Cl+3]([O-])([O-])[O-]

>  <GI50>
26.7 µM (inactive)

$$$$
>  <Compound>
Brc1ccc2c(-c3nc(-c4c[nH]c5ccc(Br)cc45)cs3)c[nH]c2c1

>  <GI50>
5.06 µM (inactive)

$$$$

The following compounds each have a reported value; give each one's GI50.
1. CC(C)(C)c1cc(C(=O)/C=C/c2ccc3c(c2)OCO3)cc(C(C)(C)C)c1O
2. CC1(C)OC[C@H](C(=N)OCc2ccccc2)O1

6.44 µM (inactive)
> 100 µM (inactive)

Source of measurements: ChEMBL document CHEMBL1201862
